Molecular target: SfurOBP2 (Sogatella furcifera)
Test: biochemical
Assay type: binding
Settings: ligand concentration 20 (unit not given), replicate column 2 of 3
Experimental Readout: Fluorescence competitive binding assay, OBP2 (raw fluorescence reading)

{"columns": ["Molecule", "Assay Result"],
 "data": [
  ["CCCCCCCCCCOCCCCCCCCCC [didecyl ether]", 53666],
  ["CCCCCCCCCCCCCC [n-tetradecane]", 20955],
  ["CCC/C=C/CO [(E)-2-hexenol]", 11220],
  ["CCCCCCCCCCCCCCCCCCC [n-nonadecane]", 23676]
]}

###

Target: SfurOBP2 (Sogatella furcifera, UniProt V5T759)
Sequence (V5T759 entry or part of it): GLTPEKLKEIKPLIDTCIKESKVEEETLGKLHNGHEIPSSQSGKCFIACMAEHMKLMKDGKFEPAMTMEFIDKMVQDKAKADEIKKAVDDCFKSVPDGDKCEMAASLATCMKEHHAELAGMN
Experiment: biochemical
Type: binding
Conditions: ligand concentration 2 (unit not given), replicate column 2 of 3
If the reported Fluorescence competitive binding assay, OBP2 (raw fluorescence reading) equals or exceeds 20000, assign T. If not, assign F.

{"columns": ["Molecule", "Group Label"],
 "data": [
  ["CCCCCCCCC=O", "T"],
  ["C=C1CC/C=C(\\C)CC[C@@H]2[C@@H]1CC2(C)C", "F"],
  ["Cc1cc(C(C)(C)C)c(O)c(C(C)(C)C)c1", "F"],
  ["CCCCCCCCCCCCCCCCCC", "F"],
  ["CCCCCC(C)=O", "F"],
  ["C=C/C(C)=C/C/C=C(\\C)CCC=C(C)C", "F"],
  ["CCCCCCCCCCCCCCCC", "F"],
  ["CC1=CC[C@@H](C(C)(C)O)CC1", "F"],
  ["C/C(=C\\CO)CCC[C@H](C)CCC[C@H](C)CCCC(C)C", "F"],
  ["CCCCCCCCCCCCO", "F"],
  ["CCCCCCCCCCCCCCCC(=O)OC [MH(methyl hexadecanoate)]", "T"],
  ["CC(C)COC(=O)CCCCC(=O)OCC(C)C [DA(diisobutyl adipate)]", "F"],
  ["CCCCCCCCCCCCCC", "F"],
  ["O=Cc1ccccc1", "F"],
  ["Cc1ccc(C(C)C)cc1", "F"],
  ["CCCCCCCCCCC", "F"],
  ["OC1CCCCC1", "F"],
  ["C=C(C)C1CC=C(C)CC1 (single isomer, unassigned; (+)) [(+)-limonene]", "F"],
  ["CCCCCCCC=O", "F"],
  ["CCCCCCC=CCO", "T"]
]}

###

Catalogue of Fluorescence intensity, fluorescence competitive binding assay, OBP11 readings, one per entry.
Target: SfurOBP11 (Sogatella furcifera)
Sequence (V5T6E3 entry or part of it): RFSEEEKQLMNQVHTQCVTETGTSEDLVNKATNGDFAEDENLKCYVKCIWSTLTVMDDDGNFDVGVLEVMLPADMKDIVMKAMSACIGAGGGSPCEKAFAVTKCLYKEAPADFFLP
Assay: biochemical
Type: binding
Conditions: ligand concentration 6, replicate 3
Experimental Readout: Fluorescence intensity, fluorescence competitive binding assay, OBP11

{"columns": ["Compound", "Assay Result"],
 "data": [
  ["CCCCCCCCCCCCCCCCCC [n-octadecane]", 29894],
  ["C=CC(C)(O)CCC=C(C)C (stereo not shown) [linalool]", 34901],
  ["O=Cc1ccccc1 [benzaldehyde]", 26004],
  ["CCCCCC=O [caproaldehyde]", 27264],
  ["C=C(C)C1CC=C(C)CC1 (single isomer, unassigned; (+)) [(+)-limonene]", 19868],
  ["CCC/C=C/CO [(E)-2-hexenol]", 29255],
  ["CC(C)COC(=O)CCCCC(=O)OCC(C)C [DA(diisobutyl adipate)]", 23079]
]}
